# MEASUREMENT_PROTOCOL: HepG2 cytotoxicity, primary screen, cytotoxicity control for P. falciparum antimalarial project, cell-based, ATP luminescence (AID 2303);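 further: 0% = DMSO wells and 100% = digitonin-killed cells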
# MEASUREMENT_CONTEXT: HepG2 viability, 24-48 h, at 10 µM, hits give high values
Output: class label from inhibition. Mapping: LOW: < 20%; MEDIUM: ≥ 20% and < 40%; HIGH: ≥ 40%

[
  {
    "COMPOUND": "Cc1cc(F)ccc1-c1nc(Nc2ccncc2)c2ccn(C)c2n1",
    "CLASS": "LOW"
  },
  {
    "COMPOUND": "O=C(/C=C/c1ccc(Cl)c(Cl)c1)NCCCCCCN1CCCN(C(=O)Nc2cccc(C(F)(F)F)c2)CC1",
    "CLASS": "MEDIUM"
  },
  {
    "COMPOUND": "Cc1ccc(Nc2nc3cc(Nc4ccnc(Nc5cccc(CS(C)(=O)=O)c5)n4)ccc3o2)cc1",
    "CLASS": "HIGH"
  },
  {
    "COMPOUND": "Cc1ccc(-c2cnc3[nH]cc(-c4ccc(C(=O)O)c(C)c4)c3c2)cc1C",
    "CLASS": "MEDIUM"
  },
  {
    "COMPOUND": "CN1CCCC(CN2CCN(Cc3ccc(-c4ccc(-c5nc6ccccc6[nH]5)s4)cc3)CC2)C1 (stereo not given)",
    "CLASS": "HIGH"
  },
  {
    "COMPOUND": "Cc1ccc(NC(=O)c2ccc3ncccc3c2)cc1OC1CCN(Cc2ccsc2)C1 (stereo not given)",
    "CLASS": "LOW"
  },
  {
    "COMPOUND": "CCCC1N=C(N)N=C(N)N1c1ccc(CC)cc1 (stereo not given)",
    "CLASS": "LOW"
  },
  {
    "COMPOUND": "Nc1nc(N)c2c(ccc3c2ncn3Cc2ccccc2)n1",
    "CLASS": "HIGH"
  },
  {
    "COMPOUND": "CCN(CC)CCON=Cc1cc(C)c2[nH]c3ccc(OCc4ccccc4)cc3c2c1C",
    "CLASS": "MEDIUM"
  }
]

###

# TARGET: Single-stranded DNA-binding protein (Escherichia coli (strain K12))
# MEASUREMENT_PROTOCOL: E. coli SSB displacement from DNA, counter-screen for HCV NS3 helicase inhibitor project, biochemical, fluorescence polarization, NIH Clinical Collection (AID 743271)
# MEASUREMENT_CONTEXT: hits give high values, concentration not given here
Calls of active or inactive are those of the source. No stated cut-off is given here; in the data, active means inhibition above about 28%; inactive means the rest.

[
  {
    "COMPOUND": "CN(C)CCOc1ccc(/C(=C(/CCCl)c2ccccc2)c2ccccc2)cc1",
    "inhibition": "20.1% (inactive)"
  },
  {
    "COMPOUND": "CN1CCN2c3ncccc3Cc3ccccc3C2C1 (configuration not stated)",
    "inhibition": "-2.76% (inactive)"
  },
  {
    "COMPOUND": "CN(C)CCc1c[nH]c2ccc(Cn3cncn3)cc12",
    "inhibition": "5.29% (inactive)"
  },
  {
    "COMPOUND": "CCC(C)(C)N=C(NC#N)Nc1cccnc1",
    "inhibition": "-3.54% (inactive)"
  },
  {
    "COMPOUND": "CN(C)CC/C=C1/c2ccccc2COc2ccccc21",
    "inhibition": "-0.1% (inactive)"
  },
  {
    "COMPOUND": "CC[C@]1(O)CC2CN(CCc3c([nH]c4ccccc34)[C@@](C(=O)OC)(c3cc4c(cc3OC)N(C=O)[C@H]3[C@@](O)(C(=O)OC)[C@H](OC(C)=O)[C@]5(CC)C=CCN6CC[C@]43[C@@H]65)C2)C1 (some centres not stated)",
    "inhibition": "0.39% (inactive)"
  },
  {
    "COMPOUND": "CNC(=O)Oc1ccc2c(c1)[C@]1(C)CCN(C)C1N2C (some centres not stated)",
    "inhibition": "-0.1% (inactive)"
  },
  {
    "COMPOUND": "OC[C@H]1O[C@@H](n2cnc3c(N[C@H]4CCC[C@@H]4O)ncnc32)[C@@H](O)C1O (some centres not stated)",
    "inhibition": "-2.76% (inactive)"
  },
  {
    "COMPOUND": "O=C1c2c(O)cc(O)cc2O[C@H](c2ccc(O)c(O)c2)[C@@H]1O",
    "inhibition": "-1.64% (inactive)"
  },
  {
    "COMPOUND": "CN1C2CCC1CC(OC(c1ccccc1)c1ccccc1)C2 (configuration not stated)",
    "inhibition": "-4.29% (inactive)"
  },
  {
    "COMPOUND": "CC[C@]1(O)CC2CN(CCc3c([nH]c4ccccc34)[C@@](C(=O)OC)(c3cc4c(cc3OC)N(C)[C@H]3[C@@](O)(C(N)=O)[C@H](O)[C@]5(CC)C=CCN6CC[C@]43[C@@H]65)C2)C1 (some centres not stated)",
    "inhibition": "1.18% (inactive)"
  },
  {
    "COMPOUND": "CC(C)C[C@H](NC(=O)[C@@H](O)[C@H](N)Cc1ccccc1)C(=O)O",
    "inhibition": "9.06% (inactive)"
  }
]

###

# MEASUREMENT_PROTOCOL: ovarian cancer cell viability with rucaparib, profiling panel, oncology-focused library, rucaparib conditional (AID 1508598)
# MEASUREMENT_CONTEXT: patient-derived ovarian cancer cells, CellTiter-Glo viability, 144 h; at 0.00488 µM; OCI-P5x cells; without rucaparib; hits give low values

[
  {
    "MOLECULE": "CC(C)c1onc(-c2c(Cl)cccc2Cl)c1COc1ccc(/C=C/c2cccc(C(=O)O)c2)c(Cl)c1",
    "READOUT_UNIT": "%",
    "viability": 91.9
  },
  {
    "MOLECULE": "CC(NC(=O)c1ccccc1N=Cc1c(O)ccc2ccccc12)c1ccccc1 (stereo not given)",
    "READOUT_UNIT": "%",
    "viability": 96.5
  },
  {
    "MOLECULE": "Nc1nc(F)nc2c1ncn2[C@@H]1O[C@H](COP(=O)(O)O)[C@@H](O)[C@@H]1O",
    "READOUT_UNIT": "%",
    "viability": 110
  },
  {
    "MOLECULE": "O=C(c1ccc(OCCN2CCCCC2)cc1)c1c(-c2ccc(O)cc2)sc2cc(O)ccc12",
    "READOUT_UNIT": "%",
    "viability": 94.8
  },
  {
    "MOLECULE": "CS(=O)c1ccc(-c2nc(-c3ccc(F)cc3)c(-c3ccncc3)[nH]2)cc1 (stereo not given)",
    "READOUT_UNIT": "%",
    "viability": 111
  }
]
